All values here come from ChEMBL document CHEMBL2375301.

# maps each entry to its pIC50
Test system: DLD-1
experiment-description: Cytotoxicity against human DLD1 cells after 72 hrs by WST-8 assay
Assay type: functional, cell-based
assay-conditions: DLD-1, 72 h
pIC50: −log10 of the molar value.
quantity-measured: pIC50

>  <smiles-input>
COc1cc2c(Nc3nc4ccc(C(=O)Nc5c(C)cc(C)cc5C)cc4s3)ncnc2cc1OCCCN1CCOCC1

>  <quantity-measured>
pIC50

>  <reported-relation>
=

>  <reported-result>
5.24

$$$$
>  <smiles-input>
COc1cc2c(Nc3nc4ccc(C(=O)Nc5c(C)cccc5Cl)cc4s3)ncnc2cc1OCCCN1CCCCC1

>  <quantity-measured>
pIC50

>  <reported-relation>
=

>  <reported-result>
4.83

$$$$
>  <smiles-input>
COc1cc2c(Nc3nc4ccc(C(=O)Nc5c(C)cc(C)cc5C)cc4s3)ncnc2cc1OCCCN1CCC(C)CC1

>  <quantity-measured>
pIC50

>  <reported-relation>
=

>  <reported-result>
5.15

$$$$
>  <smiles-input>
COc1cc2c(Nc3nc4ccc(C(=O)Nc5c(C)cccc5C)cc4s3)ncnc2cc1OCCCN1CCCCC1

>  <quantity-measured>
pIC50

>  <reported-relation>
<

>  <reported-result>
4.00

$$$$
